Test system: Escherichia coli TOP10
testDescription: shrunken log2 fold change of peptide-encoding DNA abundance (4.5 h post-induction vs induction); higher = less antimicrobial activity (less host growth inhibition)
conditionLabel: time post-induction: 4.5 h; library: site-saturation at positions 5, 18, 19, 20
testReadout: shrunken log2 fold change
// return just the number, without any unit appended

Please report the recorded shrunken log2 fold change for `RRIRDRPPRLPRPRPRPYTFPRP` . -0.0443

Return reported shrunken log2 fold change; argument: `RRIRQRPPRLPRPRPRPSGHPRP` -0.0673

Would you mind telling me what shrunken log2 fold change value was observed for `RRIRYRPPRLPRPRPRPFCTPRP` ? -0.425

Field request: shrunken log2 fold change | item: `RRIRVRPPRLPRPRPRPFNMPRP` -0.19

Requested field: shrunken log2 fold change. Item: `RRIRVRPPRLPRPRPRPNCSPRP` 0.0892

From here, focus on the item given below.
So what's the measured shrunken log2 fold change for this one? `RRIRHRPPRLPRPRPRPWPGPRP` -0.327

* * *

Entries and their measured shrunken log2 fold change follow.
Tested on: Escherichia coli TOP10
testDescription: shrunken log2 fold change of peptide-encoding DNA abundance (4.5 h post-induction vs induction); higher = less antimicrobial activity (less host growth inhibition)
conditionLabel: time post-induction: 4.5 h; library: site-saturation at positions 5, 18, 19, 20
API doc: respond with a numeric literal and nothing else, no unit.

Answered examples (3):
Can you share its shrunken log2 fold change? I mean this sequence: `RRIRRRPPRLPRPRPRPDKNPRP` 0.0344

Any idea what its shrunken log2 fold change is? The sequence is `RRIRFRPPRLPRPRPRPVSFPRP` -0.414

Report shrunken log2 fold change for `RRIRWRPPRLPRPRPRPWPMPRP` please. -0.0421

New cases:
Can you look up the measured shrunken log2 fold change of `RRIRMRPPRLPRPRPRPSKIPRP` for me? -0.0332

Requested read-out: shrunken log2 fold change. Entry: `RRIRTRPPRLPRPRPRPSLGPRP` -0.229

* * *

System: Escherichia coli TOP10
testDescription: shrunken log2 fold change of peptide-encoding DNA abundance (4.5 h post-induction vs induction); higher = less antimicrobial activity (less host growth inhibition)
conditionLabel: time post-induction: 4.5 h; library: site-saturation at positions 5, 18, 19, 20
testReadout: shrunken log2 fold change
Respond numerically, and do not add a unit to the figure.

Examples from the recorded data:
Which shrunken log2 fold change value is on record for `RRIRWRPPRLPRPRPRPEADPRP` ? 1.5

I am curious: what shrunken log2 fold change value has been reported for `RRIRYRPPRLPRPRPRPLNVPRP` ? 0.0468

Data request, read-out shrunken log2 fold change, for `RRIRMRPPRLPRPRPRPEQVPRP` 0.493

New cases:
What does the data say about its shrunken log2 fold change? Entry: `RRIRTRPPRLPRPRPRPMGKPRP` 0.0179

Reported shrunken log2 fold change for `RRIRSRPPRLPRPRPRPRLAPRP` : what is it? 0.45

Given the sequence `RRIRMRPPRLPRPRPRPLTCPRP` , what is its reported shrunken log2 fold change? -0.0821

What shrunken log2 fold change value was documented for this sequence, `RRIRCRPPRLPRPRPRPIKFPRP` ? -0.159

Sample `RRIRVRPPRLPRPRPRPTSNPRP` — what was its shrunken log2 fold change? -0.296

Suppose we examine the sequence `RRIRHRPPRLPRPRPRPEYMPRP` ; what shrunken log2 fold change value has been reported? -0.05

# shrunken log2 fold change lookup, item `RRIRNRPPRLPRPRPRPFMKPRP` -0.0163

Reported shrunken log2 fold change for `RRIRSRPPRLPRPRPRPGYEPRP` : what is it? -0.157

* * *

The following sequences are shown together with reported shrunken log2 fold change values.
Tested on: Escherichia coli TOP10
testDescription: shrunken log2 fold change of peptide-encoding DNA abundance (4.5 h post-induction vs induction); higher = less antimicrobial activity (less host growth inhibition)
conditionLabel: time post-induction: 4.5 h; library: site-saturation at positions 5, 18, 19, 20
// no unit string in output, number only

Give the measured shrunken log2 fold change of `RRIRYRPPRLPRPRPRPKVDPRP` . -0.079

Any idea what its shrunken log2 fold change is? The sequence is `RRIRPRPPRLPRPRPRPHFRPRP` 0.0655

Field request: shrunken log2 fold change | item: `RRIRHRPPRLPRPRPRPCMFPRP` -0.995

Any idea what its shrunken log2 fold change is? The sequence is `RRIRHRPPRLPRPRPRPKVQPRP` 0.146

* * *

# maps each entry to its shrunken log2 fold change
System: Escherichia coli TOP10
testDescription: shrunken log2 fold change of peptide-encoding DNA abundance (4.5 h post-induction vs induction); higher = less antimicrobial activity (less host growth inhibition)
conditionLabel: time post-induction: 4.5 h; library: site-saturation at positions 5, 18, 19, 20

Reference set (2 entries):
Provide value of shrunken log2 fold change for this record tested with Escherichia coli TOP10: `RRIRFRPPRLPRPRPRPYWNPRP` -0.388

Short answer please: shrunken log2 fold change, Escherichia coli TOP10, entry `RRIRERPPRLPRPRPRPQMGPRP` -0.115

Others:
Which shrunken log2 fold change is reported with Escherichia coli TOP10 for this entry: `RRIRPRPPRLPRPRPRPLVVPRP` ? -0.0898

Param readout= shrunken log2 fold change; system= Escherichia coli TOP10; entry= `RRIRYRPPRLPRPRPRPPGKPRP` ; returns value. 0.157

Missing value: shrunken log2 fold change, Escherichia coli TOP10, entry `RRIRNRPPRLPRPRPRPNSNPRP` . Fill in? -0.744

* * *

System: Escherichia coli TOP10
testDescription: shrunken log2 fold change of peptide-encoding DNA abundance (4.5 h post-induction vs induction); higher = less antimicrobial activity (less host growth inhibition)
conditionLabel: time post-induction: 4.5 h; library: site-saturation at positions 5, 18, 19, 20
Please enter MET where shrunken log2 fold change is greater than or equal to 0.05, and NOT MET where it is lower.

Is the recorded value of shrunken log2 fold change equal to or greater than 0.05 for this sequence? `RRIRNRPPRLPRPRPRPNAAPRP` NOT MET

Given the entry `RRIRKRPPRLPRPRPRPGPRPRP` , answer whether its shrunken log2 fold change meets or surpasses 0.05. MET

Item `RRIRFRPPRLPRPRPRPVEEPRP` with shrunken log2 fold change of 0.05 or above? NOT MET

Check this sequence for shrunken log2 fold change at or above 0.05: `RRIRDRPPRLPRPRPRPTPDPRP` MET

Textbook exercise: given the entry `RRIRGRPPRLPRPRPRPQEAPRP` , state whether its shrunken log2 fold change is greater than or equal to 0.05. MET

New cases:
For this sequence, is measured shrunken log2 fold change 0.05 or higher? `RRIRSRPPRLPRPRPRPPDNPRP` NOT MET

Determine whether this sequence has shrunken log2 fold change no lower than 0.05: `RRIRHRPPRLPRPRPRPDQEPRP` NOT MET

Threshold query (shrunken log2 fold change >= 0.05) on `RRIRNRPPRLPRPRPRPRRTPRP` MET

Identify whether the reported shrunken log2 fold change of the following sequence is 0.05 or greater: `RRIRKRPPRLPRPRPRPNMMPRP` MET

// inclusive: shrunken log2 fold change at least 0.05? input: `RRIRQRPPRLPRPRPRPTFCPRP` NOT MET

hey, is shrunken log2 fold change for this one >= 0.05? `RRIRIRPPRLPRPRPRPKMAPRP` NOT MET

* * *

The entries below are paired with their reported shrunken log2 fold change.
System: Escherichia coli TOP10
testDescription: shrunken log2 fold change of peptide-encoding DNA abundance (4.5 h post-induction vs induction); higher = less antimicrobial activity (less host growth inhibition)
conditionLabel: time post-induction: 4.5 h; library: site-saturation at positions 5, 18, 19, 20

Bench note: what shrunken log2 fold change did `RRIRYRPPRLPRPRPRPKTPPRP` show? 0.103

Which measured shrunken log2 fold change value corresponds to `RRIRCRPPRLPRPRPRPAYQPRP` ? -0.0687

Which shrunken log2 fold change value belongs to `RRIRERPPRLPRPRPRPKDVPRP` ? -0.152

Could you tell me which shrunken log2 fold change is on file for `RRIRVRPPRLPRPRPRPATTPRP` ? 0.0611

Given `RRIRHRPPRLPRPRPRPKLHPRP` , state its recorded shrunken log2 fold change. -0.271

* * *

Test system: Escherichia coli TOP10;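 note: peptides expressed intracellularly from a pBAD plasmid library in pooled LB shake-flask culture, induced with 0.3% L-arabinose, DNA abundance read by NGS, three biological replicates, DESeq2 with apeglm shrinkage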
testDescription: shrunken log2 fold change of peptide-encoding DNA abundance (4.5 h post-induction vs induction); higher = less antimicrobial activity (less host growth inhibition)
conditionLabel: time post-induction: 4.5 h; library: site-saturation at positions 5, 18, 19, 20
testReadout: shrunken log2 fold change

Name the reported shrunken log2 fold change value associated with the sequence `RRIRDRPPRLPRPRPRPHVNPRP` 0.000411

Value lookup for shrunken log2 fold change; key = `RRIRARPPRLPRPRPRPIKCPRP` -0.249

Now consider a different sequence.
// returns reported shrunken log2 fold change for input `RRIRPRPPRLPRPRPRPLQQPRP` 0.176
